Items are presented alongside their recorded IC50.
- studyTarget: Cdk9/cyclinT1 (Homo sapiens, UniProt P50750)
- Sequence (P50750 whole entry): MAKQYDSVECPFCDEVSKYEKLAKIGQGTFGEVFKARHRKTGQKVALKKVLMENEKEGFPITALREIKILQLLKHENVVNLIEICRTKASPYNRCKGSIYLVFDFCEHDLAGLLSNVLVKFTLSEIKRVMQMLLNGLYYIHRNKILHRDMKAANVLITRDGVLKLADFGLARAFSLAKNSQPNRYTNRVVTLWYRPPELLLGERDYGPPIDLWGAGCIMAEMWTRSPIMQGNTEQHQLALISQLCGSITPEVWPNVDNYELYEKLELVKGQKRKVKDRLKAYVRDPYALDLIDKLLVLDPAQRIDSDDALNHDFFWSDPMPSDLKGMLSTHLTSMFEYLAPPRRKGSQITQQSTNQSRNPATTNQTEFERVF
- Sequence (O60563 whole entry partner): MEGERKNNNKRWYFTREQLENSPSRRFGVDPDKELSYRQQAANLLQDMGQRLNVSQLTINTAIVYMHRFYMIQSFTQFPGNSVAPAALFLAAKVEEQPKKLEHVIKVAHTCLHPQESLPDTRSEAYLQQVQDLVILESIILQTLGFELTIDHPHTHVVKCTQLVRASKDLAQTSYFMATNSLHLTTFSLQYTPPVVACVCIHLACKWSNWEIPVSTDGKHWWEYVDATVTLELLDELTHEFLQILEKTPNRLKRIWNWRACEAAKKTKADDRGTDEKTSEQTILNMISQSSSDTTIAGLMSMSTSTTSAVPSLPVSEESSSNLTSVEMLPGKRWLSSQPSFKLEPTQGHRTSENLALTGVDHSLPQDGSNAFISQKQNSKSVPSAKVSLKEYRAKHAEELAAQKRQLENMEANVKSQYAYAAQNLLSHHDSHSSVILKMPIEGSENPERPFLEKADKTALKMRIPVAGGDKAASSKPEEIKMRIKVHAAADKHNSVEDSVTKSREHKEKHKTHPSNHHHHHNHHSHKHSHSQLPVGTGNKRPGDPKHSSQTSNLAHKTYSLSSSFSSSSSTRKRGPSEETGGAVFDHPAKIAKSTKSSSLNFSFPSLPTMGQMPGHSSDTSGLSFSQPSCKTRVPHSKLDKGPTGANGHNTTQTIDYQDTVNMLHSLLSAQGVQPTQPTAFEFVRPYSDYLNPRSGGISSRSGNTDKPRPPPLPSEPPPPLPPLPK
- measurementProtocol: Cdk9/cyclinT1 IMAP Protocol (fluorescence polarization kinase assay)
- setupConditions: Cdk9_cyclinT1_IC50, Table V; generated using one of the two Cdk9/cyclinT1 assays (IMAP or Alpha Screen), not stated which; ATP 6 uM

Known results for compounds:
CC(C)C(=O)Nc1cc(-c2nc(NCC3CCOCC3)ccc2Cl)c(Cl)cn1 < 8 nM
CC(C)S(=O)(=O)N[C@@H]1CC[C@H](C(=O)Nc2cc(-c3nc(NCC4CCOCC4)ccc3Cl)c(Cl)cn2)C1 < 8 nM

Please examine the following record next.
## Task Which IC50 is reported for this compound? O=C(Nc1cc(-c2cccc(NCc3cccnc3)n2)c(Cl)cn1)[C@@H]1CCCNC1
## Result < 8 nM

###

- studyTarget: Cdk9/cyclinT1 (Homo sapiens, UniProt P50750)
- measurementProtocol: Cdk9/cyclinT1 IMAP Protocol (fluorescence polarization kinase assay)
- setupConditions: Cdk9_cyclinT1_IC50, Table V; generated using one of the two Cdk9/cyclinT1 assays (IMAP or Alpha Screen), not stated which; ATP 6 uM
The threshold is 3 nM. Values of IC50 beneath it are tagged T; values meeting or exceeding it are tagged F.

compound	answerLabel
C[C@@H]1CNC[C@H](C(=O)Nc2cc(-c3cccc(NCC4CCOCC4)n3)c(Cl)cn2)C1 (single isomer, unassigned) [Example 128]	T

## Task Would you kindly verify if IC50 of COCCOC[C@@H]1C[C@@H](C(=O)Nc2cc(-c3cccc(NCC4(C)CCOCC4)n3)c(Cl)cn2)CN1 is strictly less than 3 nM?
## Result T

## Task Would you kindly verify if IC50 of CC(C)(C)OC(=O)N1CCC[C@@H](C(=O)Nc2cc(-c3cccc(NCC4CCOCC4)n3)c(Cl)cn2)C1 is strictly less than 3 nM?
## Result F

###

- studyTarget: Cdk9/cyclinT1 (Homo sapiens)
- measurementProtocol: Cdk9/cyclinT1 IMAP Protocol (fluorescence polarization kinase assay)
- setupConditions: Cdk9_cyclinT1_IC50, Table V; generated using one of the two Cdk9/cyclinT1 assays (IMAP or Alpha Screen), not stated which; ATP 6 uM
measurementName: IC50 (nM)
Use nM as the unit, but write only the number.

Known results for compounds:
compound	studyTarget	measurementName	unitString	reading
CCN1CCC[C@@H](C(=O)Nc2cc(-c3cccc(NCC4CCOCC4)n3)c(Cl)cn2)C1 (single isomer, unassigned) [Example 56]	Cdk9/cyclinT1 (Homo sapiens)	IC50	nM	81
C[C@@H]1CNC[C@H](C(=O)Nc2cc(-c3cccc(NCC4CCOCC4)n3)c(Cl)cn2)C1 (racemic) [Example 125]	Cdk9/cyclinT1 (Homo sapiens)	IC50	nM	9
O=C(Nc1cc(-c2cccc(NCC3CCOCC3)n2)c(Cl)cn1)C1CNCCOC1 (stereo not drawn) [Example 187]	Cdk9/cyclinT1 (Homo sapiens)	IC50	nM	3
O=C(Nc1cc(-c2cccc(NCC3CCOCC3)n2)c(Cl)cn1)[C@H]1CNC[C@@H]1O [Example 122]	Cdk9/cyclinT1 (Homo sapiens)	IC50	nM	15

Please examine the following record next.
## Task Which IC50 is reported for this compound? O=C(Nc1cc(-c2cccc(NCC3CCOCC3)n2)c(Cl)cn1)[C@H]1CNC[C@H](C(F)(F)F)C1 (single isomer, unassigned) [Example 162]
## Result 10
